Data provenance is ChEMBL document CHEMBL3301361.

EXPERIMENT: physchem
MEASUREMENT_SETUP: pH 7.4 buffer
Label scheme, based on solubility thermodynamic: low (below 2 µM), mid (2 µM to below 10 µM), high (10 µM or more)

MOLECULE	CLASS
CS(=O)(=O)C1(c2cc(N3CCOCC3)nc(-c3cccc(N)c3)n2)CC1	high
OC1CCN(CCOc2n[nH]c3ncnc(Nc4ccc(OCc5cccc(F)c5)c(Cl)c4)c23)CC1	mid
CCN(C(=O)Cc1ccc(S(C)(=O)=O)cc1)C1CCN(CCC(c2ccccc2)C2CCN(S(=O)(=O)CC)CC2)CC1 (stereo not given)	high
O=C(CO)N1CCC[C@@H]1COc1cccc2ncnc(Nc3ccc(OCc4ccccn4)c(Cl)c3)c12	mid
CNC(=O)c1ccccc1Sc1ccc2c(/C=C/c3ccccn3)n[nH]c2c1 [AXITINIB]	low
CS(=O)(=O)C1(c2cc(N3CCOCC3)nc(-c3cccc4[nH]ccc34)n2)CCNCC1	high
COc1ccc(CN2CCc3c([nH]c4ccccc34)C2)cc1OC	high
Nc1nc(Nc2ccc(Cl)cc2)cc(-c2ccccc2)n1	mid

Data request: Hi, small favor: classify Clc1ccc2c(c1)Nc1ccccc1S2 by its solubility thermodynamic when you get a moment.
Data returned: low

Data request: Into which category would you place CNc1ncnc2c(CNc3cc(NC(=O)c4ccc5c(c4)OCCO5)ccc3C)cccc12 ?
Data returned: mid

---

EXPERIMENT: in vitro
MEASUREMENT_SETUP: human, plasma, PPB
Label met for high-side fraction unbound at 5 h (at or above 0.04) and not met for low-side fraction unbound at 5 h (below it).

COMPOUND	CLASS
O=C(NCc1ccc(OC(F)(F)F)cc1)C1c2ccccc2C(=O)N1C[C@@H]1CCCO1 (stereo partly drawn)	not met
C[C@H]1C[C@@H]2[C@H]([C@@H](O)C[C@@]3(C)[C@H]2CC[C@]3(O)C(=O)CO)[C@@]2(C)C=CC(=O)C=C12 [METHYLPREDNISOLONE]	met
CCCCc1nc(Cl)c(C(=O)O)n1Cc1ccc(-c2ccccc2-c2nn[nH]n2)cc1 [CARBOXYLIC ACID METABOLITE]	not met

Data request: Test whether the compound C[C@]12Cc3cnn(-c4ccc(F)cc4)c3C=C1CC[C@@]2(O)CCc1ccc(F)cc1C(N)=O records fraction unbound at 5 h of 0.04 or higher.
Data returned: not met

Data request: Entry CCNC(=O)c1cc2c(-n3nc(C(F)(F)F)cc3C)c(-c3cncc(C(=O)O)c3)cnc2[nH]1 : is its fraction unbound at 5 h no less than 0.04?
Data returned: met

Data request: Check this compound for fraction unbound at 5 h at or above 0.04: CCC(CC)NC(=O)c1cn(-c2ccccc2)nc1NS(=O)(=O)c1ccc(C)cc1
Data returned: not met

Data request: Dear colleague, could you confirm whether Cc1ccc2c(c1)c(-c1ccnc3c(C(F)(F)F)cccc13)c(C)n2CC(=O)O has fraction unbound at 5 h at or above 0.04?
Data returned: not met

Data request: Does the compound CN1CCN(c2ccc3ncc(C(N)=O)c(Nc4ccc(Cl)c(Cl)c4)c3c2)CC1 have recorded fraction unbound at 5 h that is 0.04 or more?
Data returned: met

---

fraction unbound at 5 h by entry:
EXPERIMENT: in vitro
MEASUREMENT_SETUP: human, plasma, PPB
Form rule: numeric answer, no unit written next to it.

# example entries with known answers
COMPOUND	fraction unbound at 5 h
O=c1[nH]cnc2scc(-c3cccs3)c12	0.0111
O=C(N[C@H](Cc1ccc(Cl)cc1)C(=O)N1CCC(Cn2cncn2)(C2CCCCC2)CC1)[C@H]1Cc2ccccc2CN1	0.007
Cc1ccc(N2CC(COc3ccc(-c4noc(C)n4)cc3)C2)nn1	0.062
CC(C)(C)NC(=O)[C@@H]1C[C@@H]2CCCC[C@@H]2CN1C[C@@H](O)[C@H](Cc1ccccc1)NC(=O)[C@H](CC(N)=O)NC(=O)c1ccc2ccccc2n1	0.0114
Cc1c[nH]c(-c2cc(NC(=O)c3ccc(C(F)(F)F)nc3C)ccc2Cl)n1	0.0391
COc1ccccc1CN(C(C)=O)c1cnccc1Oc1ccccc1	0.069
CN(C)CCCN1c2ccccc2CCc2ccc(Cl)cc21	0.0374
CC(C)(C)C(NC(=O)c1ccccc1)C(=O)c1ccc(Cl)cc1 (stereo not drawn)	0.006
COc1ccc(CC(=O)Nc2nc3ccccc3[nH]2)cc1	0.0374
Cc1ccc(CO)cc1N(C)c1ccnc(Nc2cc(N3CCOCC3)cc(N3CCOCC3)c2)n1	0.0818

Data request: Form field: reported fraction unbound at 5 h of O=C1CN(C(=O)c2ccco2)C(c2ccccc2)c2cc(Cl)ccc2N1 (stereo not drawn)
Data returned: 0.101

Data request: Fill blank: measured fraction unbound at 5 h of the compound CC(C)Oc1cc(-n2cnc3cnc(N[C@@H](C)c4ncc(F)cn4)nc32)n[nH]1 is ____.
Data returned: 0.309

Data request: Need fraction unbound at 5 h, item Cc1ccc(S(=O)(=O)NC(=O)N2CCC(N3CCC(Oc4ccc(Cl)c(C)c4Cl)CC3)CC2)cc1
Data returned: 0.179

Data request: Data request, read-out fraction unbound at 5 h, for N#CC1=C2C(=NC1=O)c1cccc3c(N4CCSCC4)ccc2c13
Data returned: 0.0139

Data request: State the recorded fraction unbound at 5 h for this entry: CCCCNc1nc(SCCC)nc2c1nnn2[C@@H]1C[C@H](CO)[C@@H](O)[C@H]1O
Data returned: 0.024

Data request: Which fraction unbound at 5 h is reported for this compound? O=C(NCc1ccc(OC(F)(F)F)cc1)C1c2ccccc2C(=O)N1CCc1ncc(F)cn1 (stereo not drawn)
Data returned: 0.0477

Data request: Which fraction unbound at 5 h value is on record for N#Cc1ccc(C(c2ccc(C#N)cc2)n2cncn2)cc1 ?
Data returned: 0.483

Data request: Item under review: Cc1ccc(S(=O)(=O)Nc2c(C(=O)NC3CCCCC3)c(C)nn2-c2ccccc2)cc1 . Reported fraction unbound at 5 h?
Data returned: 0.0014

Data request: Bench note: what fraction unbound at 5 h did Cc1onc(-c2c(Cl)cccc2Cl)c1CC(=O)NCc1ccc(OCC(F)(F)F)nc1 show?
Data returned: 0.009

Data request: For the compound shown here, COCC#Cc1cccc(C2(c3ccc(OC(F)F)cc3)N=C(N)N3CC(F)(F)CN=C32)c1 (stereo not drawn) , give the reported fraction unbound at 5 h.
Data returned: 0.0111

Data request: What value of measured fraction unbound at 5 h is listed for O=C(NCc1ccc(OCC(F)(F)F)nc1)C1c2ccccc2C(=O)N1CCc1ccccn1 (stereo not drawn) ?
Data returned: 0.0928

Data request: Which fraction unbound at 5 h value is on record for CN(C)CCC1CCN(c2cc(C(=O)NC[C@H]3CC[C@H](CNC(=O)OC(C)(C)C)CC3)c3ccccc3n2)CC1 ?
Data returned: 0.0335

---

EXPERIMENT: in vitro
MEASUREMENT_SETUP: SD, HW or BN, rat, plasma
Below is a list of entries, each paired with its recorded fraction unbound at 5 h value.
Write the value as a bare number.

Solved entries:
COMPOUND	MEASURED_NUMBER
Cc1ccc(NC(=O)Nc2nnc(-c3ccncc3)s2)cc1	0.0064
CCc1cnn2c(NCc3ccc[n+]([O-])c3)cc(N3CCCC[C@H]3CCO)nc12	0.176
O=C1CCc2cc(-c3cncc4ccccc34)ccc2N1	0.0313
O=C(Nc1ccccc1)Nc1nc(-c2ccccc2)cs1	0.0005
COc1ccccc1OCC(O)CN1CCN(CC(=O)Nc2c(C)cccc2C)CC1 (configuration not stated)	0.465
CN(C)C(=O)[C@H](O)[C@H](Cc1ccccc1)NC(=O)c1cc2cc(Cl)ccc2[nH]1	0.0268
COc1cccc2c1c(NS(=O)(=O)c1ccc(Cl)s1)nn2Cc1cccc(CNC(=O)C(C)(C)O)c1	0.0082
O=C(Nc1ccc(Cl)c(S(=O)(=O)N2CCNCC2)c1O)Nc1cccc(F)c1Cl	0.0106

// switching to the query compound
Data request: Name the reported fraction unbound at 5 h value associated with the compound Cc1ccc(OCC(O)C(C)NC(C)C)c2c1CCC2 (configuration not stated)
Data returned: 0.216

---

Here, each record is paired with measured solubility thermodynamic data.
EXPERIMENT: physchem
MEASUREMENT_SETUP: pH 7.4 buffer
Reply with just the number (in µM).

Please review the following examples before continuing.
COc1cnc(-c2ccccc2C(F)(F)CNC(=O)c2ccc(COCC(F)(F)F)nc2)cn1 85.1
O=C(CCOCCc1ccccc1)NCCNCCc1ccc(O)c2nc(O)sc12 1510
C[C@H](Oc1cccc2ncnc(Nc3ccc4c(cnn4Cc4nccs4)c3)c12)C(=O)N(C)C 31.6
Nc1ccccc1NC(=O)c1ccc(N2CCN(Cc3ccccc3)CC2)cc1 28.2
CN1CCC(Oc2cccc3ncnc(Nc4ccc(OCc5cnccn5)c(Cl)c4)c23)CC1 12.3

Data request: Data request, read-out solubility thermodynamic, for COc1cc2ncnc(Nc3cccc(Cl)c3F)c2cc1CN1CCC[C@H]1C(N)=O
Data returned: 257

Data request: Give the measured solubility thermodynamic of O=C(O)[C@H](Cc1ccccc1)N1CCC(CN2CCC(Oc3ccc(Cl)c(Cl)c3)CC2)CC1 .
Data returned: 13.5

Data request: Could you tell me which solubility thermodynamic is on file for O=S(=O)(NCCNC/C=C/c1ccc(Br)cc1)c1cccc2cnccc12 ?
Data returned: 61.7

Data request: Which solubility thermodynamic is reported for this compound? CN(c1ccnc(Nc2cc(N3CCOCC3)nc(N3CCOCC3)c2)n1)c1cccc2[nH]ncc12
Data returned: 0.8

Data request: What does the record list as solubility thermodynamic for O=C(c1ccc(F)cc1)C1CCN(C(=O)c2ccc(F)cc2Cl)CC1 ?
Data returned: 14.5
